# Test system: MS751 cells
# protocol text: MTT cell proliferation assay, MS751 cells
# Format: cell-based
# experimental conditions: Homo sapiens, incubation approximately 64-72 hours
Measured IC50, listed per entry.
measured parameter: IC50

molecule=Cc1cc(-c2ccc(OCCNC(=O)/C=C/c3ccc(N)nc3)c(Cl)c2)ccc1C(=O)N1CCOCC1 experimental_result="< 100 nM"
molecule=CN1CCN(C(=O)c2ccc(-c3ccc(OCCNC(=O)/C=C/c4ccc(N)nc4)c(Cl)c3)cc2)CC1 experimental_result="< 100 nM"
molecule=CC(=O)c1ccc(-c2ccc(OCCNC(=O)/C=C/c3c(C)noc3C)c(Cl)c2)s1 experimental_result="> 10000 nM"
molecule=CN(C)C(=O)c1ccc(-c2ccc(OCCNC(=O)/C=C/c3ccc(N)nc3)c(Cl)c2)cc1 experimental_result="100 to 5000 nM"
molecule=CC(=O)c1ccc(-c2ccc(OCCN(C)C(=O)/C=C/c3cccnc3)c(Cl)c2)s1 experimental_result="100 to 5000 nM"
molecule=Nc1ccc(/C=C/C(=O)NCC(F)(F)COc2ccc(-c3ccc(C(=O)N4CCOCC4)cc3)cc2Cl)cn1 experimental_result="< 100 nM"
molecule="CC(CCOc1cc(-c2ccc(C(=O)N3CCC(F)(F)CC3)cn2)cc(C(F)(F)F)c1)NC(=O)/C=C/c1ccc(N)nc1 (stereo not shown)" experimental_result="100 to 5000 nM"
molecule=CC(=O)c1ccc(-c2ccc(OCCNC(=O)CCc3cccnc3)c(Cl)c2)s1 experimental_result="5000 to 10000 nM"
molecule=CC(C)(CNC(=O)/C=C/c1ccc(N)nc1)Oc1ccc(F)c(-c2ccc(C(=O)N3CCOCC3)cc2)c1 experimental_result="100 to 5000 nM"
molecule=Nc1ccc(/C=C/C(=O)NCCCOc2cc(Cl)cc(-c3ccc(C(=O)N4CCOCC4)cc3)c2)cn1 experimental_result="< 100 nM"
molecule=Nc1ccc(CNC(=O)/C=C\COc2ccc(-c3ccc(C(=O)N4CCC(F)(F)CC4)cn3)cc2C(F)(F)F)cn1 experimental_result="> 10000 nM"
molecule=Nc1ccc(/C=C/C(=O)NCCCOc2ccc(-c3ccc(C(=O)N4CCOCC4)cc3)cc2Cl)cn1 experimental_result="< 100 nM"
molecule=Nc1ccc(/C=C/C(=O)NCCOc2ccc(-c3ccc(C(=O)N4CCCCC4)cc3)cc2Cl)cn1 experimental_result="< 100 nM"
molecule=CC(C)(CNC(=O)/C=C/c1ccc(N)nc1)Oc1ccc(-c2ccc(C(=O)N3CC(F)(F)C3)cc2)cc1Cl experimental_result="100 to 5000 nM"
molecule=[2H]C([2H])(CNC(=O)/C=C/c1ccc(N)nc1)Oc1ccc(-c2ccc(C(=O)N3CCOCC3)cc2)cc1Cl experimental_result="< 100 nM"
molecule=CC(C)(O)c1ccc(-c2ccc(OCCNC(=O)/C=C/c3cccnc3)c(Cl)c2)s1 experimental_result="100 to 5000 nM"
molecule=CC(=O)c1ccc(-c2ccc(OCCNC(=O)/C=C\c3cccnc3)c(Cl)c2)s1 experimental_result="5000 to 10000 nM"
molecule=CC(=O)c1ccc(-c2ccc(OC(C)(C)CNC(=O)/C=C/c3cccnc3)c(Cl)c2)s1 experimental_result="5000 to 10000 nM"
molecule="CC(O)c1ccc(-c2ccc(OCCNC(=O)/C=C/c3cccnc3)c(Cl)c2)s1 (stereo not shown)" experimental_result="< 100 nM"
molecule=CC(C)(CNC(=O)/C=C/c1ccc(N)nc1)Oc1cc(Cl)cc(-c2ccc(C(=O)N3CCOCC3)cc2)c1 experimental_result="100 to 5000 nM"
molecule=Nc1ccc(/C=C/C(=O)NCCCOc2ccc(-c3ccc(C(=O)N4CC(F)(F)C4)cc3)cc2Cl)cn1 experimental_result="< 100 nM"
molecule=Nc1ccc(/C=C/C(=O)NCCOc2ccc(-c3ccc(C(=O)N4CCOCC4)cc3)cc2Cl)cn1 experimental_result="< 100 nM"
